List of Body weight values.
# Species: Mus musculus
# Protocol: Average body weight of mice was determined
# Assay type: functional
Property: Body weight (g)

O=C1CN2CCN3CC(=O)N(CN4CCOCC4)C(=O)[C@H]3C2C(=O)N1CN1CCOCC1 (stereo in doubt; form 1)    19.9
O=C1CN2CCN3CC(=O)NC(=O)[C@H]3C2C(=O)N1 (some centres undefined)    17.8
O=C1CN2CCN3CC(=O)N(CN4CCOCC4)C(=O)[C@@H]3C2C(=O)N1CN1CCOCC1 (some centres undefined)    19.4
O=C1CN2CCN3CC(=O)NC(=O)[C@@H]3C2C(=O)N1 (some centres undefined)    17.7
